Hi there, I'd appreciate the recorded total protein half-life in vivo for every entry that follows.
# measurement-description: total protein half-life in vivo (active degradation + dilution); higher = more stable protein
# test-settings: E. coli NCM3722 delta-hslV; growth: N-lim chemostat; doubling time 6 h
Give bare numbers, in h.

seq-text	recorded-number
MTEQQISRTQAWLESLRPKTLPLAFAAIIVGTALAWWQGHFDPLVALLALITAGLLQILSNLANDYGDAVKGSDKPDRIGPLRGMQKGVITQQEMKRALIITVVLICLSGLALVAVACHTLADFVGFLILGGLSIIAAITYTVGNRPYGYIGLGDISVLVFFGWLSVMGSWYLQAHTLIPALILPATACGLLATAVLNINNLRDINSDRENGKNTLVVRLGEVNARRYHACLLMGSLVCLALFNLFSLHSLWGWLFLLAAPLLVKQARYVMREMDPVAMRPMLERTVKGALLTNLLFVLGIFLSQWAA	6.01
MPAENIVEVHHLKKSVGQGEHELSILTGVELVVKRGETIALVGESGSGKSTLLAILAGLDDGSSGEVSLVGQPLHNMDEEARAKLRAKHVGFVFQSFMLIPTLNALENVELPALLRGESSAESRNGAKALLEQLGLGKRLDHLPAQLSGGEQQRVALARAFNGRPDVLFADEPTGNLDRQTGDKIADLLFSLNREHGTTLIMVTHDLQLAARCDRCLRLVNGQLQEEA [P0A9T8]	5.9
MSEQLVTPENVTTKDGKINLLDLNRQQMREFFKDLGEKPFRADQVMKWMYHYCCDNFDEMTDINKVLRGKLKEVAEIRAPEVVEEQRSSDGTIKWAIAVGDQRVETVYIPEDDRATLCVSSQVGCALECKFCSTAQQGFNRNLRVSEIIGQVWRAAKIVGAAKVTGQRPITNVVMMGMGEPLLNLNNVVPAMEIMLDDFGFGLSKRRVTLSTSGVVPALDKLGDMIDVALAISLHAPNDEIRDEIVPINKKYNIETFLAAVRRYLEKSNANQGRVTIEYVMLDHVNDGTEHAHQLAELLKDTPCKINLIPWNPFPGAPYGRSSNSRIDRFSKVLMSYGFTTIVRKTRGDDIDAACGQLAGDVIDRTKRTLRKRMQGEAIDIKAV	1.13
MKTETPSVKIVAITADEAGQRIDNFLRTQLKGVPKSMIYRILRKGEVRVNKKRIKPEYKLEAGDEVRIPPVRVAEREEEAVSPHLQKVAALADVILYEDDHILVLNKPSGTAVHGGSGLSFGVIEGLRALRPEARFLELVHRLDRDTSGVLLVAKKRSALRSLHEQLREKGMQKDYLALVRGQWQSHVKSVQAPLLKNILQSGERIVRVSQEGKPSETRFKVEERYAFATLVRCSPVTGRTHQIRVHTQYAGHPIAFDDRYGDREFDRQLTEAGTGLNRLFLHAAALKFTHPGTGEVMRIEAPMDEGLKRCLQKLRNAR [P0AA39]	5.84

State the recorded total protein half-life in vivo for every item in the following list.
1. MNLDDKSLFLDAMEDVQPLKRATDVHWHPTRNQRAPQRIDTLQLDNFLTTGFLDIIPLSQPLEFRREGLQHGVLDKLRSGKYPQQASLNLLRQPVEECRKMVFSFIQQALADGLRNVLIIHGKGRDDKSHANIVRSYVARWLTEFDDVQAYCTALPHHGGSGACYVALRKTAQAKQENWERHAKRSR
2. MLCVKNVSLRLPESRLLTNVNFTVDKGDIVTLMGPSGCGKSTLFSWMIGALAEQFSCTGELWLNEQRIDILPTAQRQIGILFQDALLFDQFSVGQNLLLALPATLKGNARRNAVNDALERSGLEGAFHQDPATLSGGQRARVALLRALLAQPKALLLDEPFSRLDVALRDNFRQWVFSEVRALAIPVVQVTHDLQDVPADSSVLDMAQWSENYNKLR

1: 0.92; 2: 6.47
